Target: EGFR L858R/T790M Ba/F3 cells (Homo sapiens, UniProt P00533, T790M/L858R, cells depend on it)
Sequence (P00533 whole entry T790M/L858R): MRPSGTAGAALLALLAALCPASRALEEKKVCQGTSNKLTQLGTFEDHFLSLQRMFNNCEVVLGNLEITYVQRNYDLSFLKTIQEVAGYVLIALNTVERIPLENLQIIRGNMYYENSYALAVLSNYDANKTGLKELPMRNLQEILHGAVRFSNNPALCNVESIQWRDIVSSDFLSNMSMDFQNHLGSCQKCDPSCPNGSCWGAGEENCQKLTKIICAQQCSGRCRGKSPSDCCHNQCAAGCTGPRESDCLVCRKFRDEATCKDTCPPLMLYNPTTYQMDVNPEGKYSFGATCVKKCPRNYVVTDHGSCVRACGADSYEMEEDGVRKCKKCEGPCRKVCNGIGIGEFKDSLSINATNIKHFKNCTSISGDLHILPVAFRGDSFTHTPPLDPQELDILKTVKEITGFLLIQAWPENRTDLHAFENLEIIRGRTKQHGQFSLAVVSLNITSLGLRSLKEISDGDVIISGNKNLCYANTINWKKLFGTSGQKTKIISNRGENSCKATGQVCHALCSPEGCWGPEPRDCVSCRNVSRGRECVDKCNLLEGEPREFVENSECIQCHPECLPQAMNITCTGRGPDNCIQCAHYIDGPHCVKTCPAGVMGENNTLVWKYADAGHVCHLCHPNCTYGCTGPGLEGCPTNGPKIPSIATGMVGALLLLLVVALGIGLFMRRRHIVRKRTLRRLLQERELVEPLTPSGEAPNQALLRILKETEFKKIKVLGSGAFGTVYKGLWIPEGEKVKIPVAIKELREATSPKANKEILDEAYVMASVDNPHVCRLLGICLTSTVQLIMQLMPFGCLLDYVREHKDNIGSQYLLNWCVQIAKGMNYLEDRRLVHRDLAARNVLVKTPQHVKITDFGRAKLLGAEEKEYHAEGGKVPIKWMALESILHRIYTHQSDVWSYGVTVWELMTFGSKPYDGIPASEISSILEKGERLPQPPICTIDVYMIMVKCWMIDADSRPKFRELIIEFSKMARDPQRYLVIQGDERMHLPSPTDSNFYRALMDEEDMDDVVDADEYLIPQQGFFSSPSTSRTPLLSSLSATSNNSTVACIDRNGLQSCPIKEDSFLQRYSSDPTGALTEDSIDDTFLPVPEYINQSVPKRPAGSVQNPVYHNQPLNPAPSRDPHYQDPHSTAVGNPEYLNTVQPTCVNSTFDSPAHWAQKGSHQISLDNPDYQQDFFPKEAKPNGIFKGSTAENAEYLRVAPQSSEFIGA
Assay: Ba/F3 cell proliferation (Cell Titer Glo), L858R/T790M
Conditions: Ba/F3, 72 hours, value in parentheses, meaning not explained, read-out: L858R/T790M, inhibition of growth (value in parentheses)
pEC50: −log10 of the molar value.
Catalogue of pEC50 readings, one per entry.

Before answering, review these 4 worked examples.
| RECORD_SMILES | TEST_READOUT | RESULT |
| --- | --- | --- |
| CSc1nc(-c2cccc(NC(=O)c3ccccc3CN3Cc4ccccc4C3=O)c2)c(-c2ccnc(NC(C)=O)c2)[nH]1 | pEC50 | < 5.00 |
| CSc1nc(-c2cccc(NC(=O)c3ccccc3CN3Cc4ccccc4C3=O)c2)c(-c2ccnc(Nc3ccccc3)c2)[nH]1 | pEC50 | < 5.25 |
| CSc1nc(-c2cccc(NC(=O)c3c(F)ccc(O)c3CN3C(=O)c4ccccc4C3=O)c2)c(-c2ccnc(Nc3ccccc3)c2)[nH]1 | pEC50 | < 5.00 |
| CSc1nc(-c2cccc(NC(=O)c3ccccc3CN3C(=O)c4ccccc4C3=O)c2)c(-c2ccnc(Nc3ccccc3)c2)[nH]1 | pEC50 | < 5.00 |

--- query ---
In one line, give reported pEC50 of the entry C=CC(=O)Nc1ccc(OC)c(Nc2cc(-c3[nH]c(SC)nc3-c3cccc(NC(=O)c4ccccc4CN4Cc5ccccc5C4=O)c3)ccn2)c1 . 5.60
